target: 17X-PTDH-R301A (Stutzerimonas stutzeri (Pseudomonas stutzeri), UniProt O69054, D13E/E130K/I150F/M26I/Q132R/Q137R/R301A/V71I, form not given); assay type: biochemical, Pseudomonas stutzeri WM88; conditions: R301A, rescue agent and NAD+ saturating (>10 K R), pH 7.25
Sequence (O69054 1-329 D13E/E130K/I150F/M26I/Q132R/Q137R/R301A/V71I): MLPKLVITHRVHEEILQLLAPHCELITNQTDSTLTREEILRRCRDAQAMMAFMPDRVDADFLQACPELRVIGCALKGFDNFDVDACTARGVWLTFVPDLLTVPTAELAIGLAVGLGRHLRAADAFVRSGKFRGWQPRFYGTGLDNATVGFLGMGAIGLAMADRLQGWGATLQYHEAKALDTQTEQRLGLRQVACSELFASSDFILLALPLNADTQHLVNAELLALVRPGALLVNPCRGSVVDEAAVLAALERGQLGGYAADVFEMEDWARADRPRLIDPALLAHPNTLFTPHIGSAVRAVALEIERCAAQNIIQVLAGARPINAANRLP
// K m, phosphite (apparent) lookup, one value per entry

The cases that follow already have their K m, phosphite (apparent) on record.
• N=C(N)N [guanidine] = 30 (3) mM
• N=C(N)NN [aminoguanidine] = 7.4 (0.5) mM

Would you mind telling me what K m, phosphite (apparent) value was observed for CC(=N)N [acetamidine] ?
130 (20) mM

Would you mind telling me what K m, phosphite (apparent) value was observed for CN=C(N)N [methylguanidine] ?
130 (30) mM
